// data source = patent US20170152226A1

- Tested on: CaCo2
- Method: Anti-proliferative activity, cell-titre luminescent viability assay
- Type: cell-based
- Details: Homo sapiens, Caco-2, 72 h, 0.03, 0.3, 3 and 30 μM, linear regression of semi-log plots, read-out: IC50 Colorectal CaCo2
pIC50: −log10 of the molar value.
Recorded pIC50, one value per entry.

- Structure Smiles String: "Cc1c(C)n(CCCN2CCN(C)CC2)c2ccc(Nc3ccc(C(=O)N4CCN(CCc5ccc6c(c5)OCO6)CC4)cc3)cc12"
  System Under Test: "CaCo2"
  Sign: "="
  pIC50: 5.41
- Structure Smiles String: "Cc1c(C)n(CCCN2CCN(C)CC2)c2ccc(Nc3cccc(C(=O)N4CCN(CCc5ccc6c(c5)OCO6)CC4)c3)cc12"
  System Under Test: "CaCo2"
  Sign: "="
  pIC50: 5.34
- Structure Smiles String: "COc1ccc(CCN2CCN(C(=O)c3cccc(Oc4ccc5c(c4)c(C)c(C)n5CCCN4CCN(C)CC4)c3)CC2)cc1"
  System Under Test: "CaCo2"
  Sign: "="
  pIC50: 5.51
- Structure Smiles String: "COc1cccc(CCN2CCN(C(=O)c3ccc(Nc4ccc5c(c4)c(C)c(C)n5CCCN4CCN(C)CC4)cc3)CC2)c1"
  System Under Test: "CaCo2"
  Sign: "="
  pIC50: 5.52
- Structure Smiles String: "COc1cccc(CCN2CCN(C(=O)c3cccc(Nc4ccc5c(c4)c(C)c(C)n5CCCN4CCN(C)CC4)c3)CC2)c1"
  System Under Test: "CaCo2"
  Sign: "<"
  pIC50: 4.52
- Structure Smiles String: "COc1cccc(CCN2CCN(C(=O)c3cccc(Cc4ccc5c(c4)c(C)c(C)n5CCCN4CCN(C)CC4)c3)CC2)c1"
  System Under Test: "CaCo2"
  Sign: "="
  pIC50: 5.44
- Structure Smiles String: "COc1ccc(CCN2CCN(C(=O)c3cccc(Nc4ccc5c(c4)c(C)c(C)n5CCCN4CCN(C)CC4)c3)CC2)cc1"
  System Under Test: "CaCo2"
  Sign: "="
  pIC50: 5.51

---

- System: CaCo2
- Method: Anti-proliferative activity, cell-titre luminescent viability assay
- Type: cell-based
- Details: Homo sapiens, Caco-2, 72 h, 0.1, 0.3, 1, 3, 10 and 30 μM, nonlinear regression sigmoidal dose-response (EC50), read-out: IC50 Colorectal CaCo2
pIC50: −log10 of the molar value.
Measured Endpoint: pIC50

- Structure Smiles String: "COc1ccc(CCN2CCN(C(=O)c3cccc(Cc4ccc5c(c4)c(C)c(C)n5CCCN4CCN(C)CC4)c3)CC2)cc1"
  Measured Endpoint: "pIC50"
  Data Value: 5.24
- Structure Smiles String: "Cc1c(C)n(CCCN2CCN(C)CC2)c2ccc(Cc3ccc(C(=O)N4CCN(CCc5ccc6ccccc6c5)CC4)cc3)cc12"
  Measured Endpoint: "pIC50"
  Data Value: 5.41
- Structure Smiles String: "Cc1c(C)n(CCCN2CCN(C)CC2)c2ccc(Cc3cccc(C(=O)N4CCN(CCc5cccc6ccccc56)CC4)c3)cc12"
  Measured Endpoint: "pIC50"
  Data Value: 5.34
- Structure Smiles String: "COc1ccc2cc(CCN3CCN(C(=O)c4cccc(Cc5ccc6c(c5)c(C)c(C)n6CCCN5CCN(C)CC5)c4)CC3)ccc2c1"
  Measured Endpoint: "pIC50"
  Data Value: 5.24
- Structure Smiles String: "Cc1c(C)n(CCCN2CCN(C)CC2)c2ccc(Cc3ccc(C(=O)N4CCN(CCc5ccc6c(c5)OCO6)CC4)cc3)cc12"
  Measured Endpoint: "pIC50"
  Data Value: 5.22
- Structure Smiles String: "Cc1c(C)n(CCCN2CCN(C)CC2)c2ccc(Oc3ccc(C(=O)N4CCN(CCc5ccccc5)CC4)cc3)cc12"
  Measured Endpoint: "pIC50"
  Data Value: 5.37
- Structure Smiles String: "Cc1c(C)n(CCCN2CCN(C)CC2)c2ccc(Oc3ccc(C(=O)N4CCN(CCc5cccc(F)c5)CC4)cc3)cc12"
  Measured Endpoint: "pIC50"
  Data Value: 5.34
- Structure Smiles String: "Cc1c(C)n(CCCN2CCN(C)CC2)c2ccc(Cc3cccc(C(=O)N4CCN(CCc5cccc(F)c5)CC4)c3)cc12"
  Measured Endpoint: "pIC50"
  Data Value: 5.74
- Structure Smiles String: "Cc1c(C)n(CCCN2CCN(C)CC2)c2ccc(Cc3cccc(C(=O)N4CCN(CCc5ccc6ccccc6c5)CC4)c3)cc12"
  Measured Endpoint: "pIC50"
  Data Value: 5.30
- Structure Smiles String: "COc1ccc2cc(CCN3CCN(C(=O)c4ccc(Cc5ccc6c(c5)c(C)c(C)n6CCCN5CCN(C)CC5)cc4)CC3)ccc2c1"
  Measured Endpoint: "pIC50"
  Data Value: 5.82
- Structure Smiles String: "Cc1c(C)n(CCCN2CCN(C)CC2)c2ccc(Cc3ccc(C(=O)N4CCN(CCc5ccc(F)cc5)CC4)cc3)cc12"
  Measured Endpoint: "pIC50"
  Data Value: 5.25
- Structure Smiles String: "COc1ccc(CCN2CCN(C(=O)c3ccc(Oc4ccc5c(c4)c(C)c(C)n5CCCN4CCN(C)CC4)cc3)CC2)cc1"
  Measured Endpoint: "pIC50"
  Data Value: 5.28
- Structure Smiles String: "Cc1c(C)n(CCCN2CCN(C)CC2)c2ccc(Oc3cccc(C(=O)N4CCN(CCc5cccc(F)c5)CC4)c3)cc12"
  Measured Endpoint: "pIC50"
  Data Value: 5.24
- Structure Smiles String: "Cc1c(C)n(CCCN2CCN(C)CC2)c2ccc(Cc3ccc(C(=O)N4CCN(CCc5cccc6ccccc56)CC4)cc3)cc12"
  Measured Endpoint: "pIC50"
  Data Value: 4.87
- Structure Smiles String: "COc1cccc(CCN2CCN(C(=O)c3cccc(Oc4ccc5c(c4)c(C)c(C)n5CCCN4CCN(C)CC4)c3)CC2)c1"
  Measured Endpoint: "pIC50"
  Data Value: 5.46
- Structure Smiles String: "Cc1c(C)n(CCCN2CCN(C)CC2)c2ccc(Oc3ccc(C(=O)N4CCN(CCc5ccc(F)cc5)CC4)cc3)cc12"
  Measured Endpoint: "pIC50"
  Data Value: 5.39
- Structure Smiles String: "COc1cccc(CCN2CCN(C(=O)c3ccc(Oc4ccc5c(c4)c(C)c(C)n5CCCN4CCN(C)CC4)cc3)CC2)c1"
  Measured Endpoint: "pIC50"
  Data Value: 5.38
- Structure Smiles String: "Cc1c(C)n(CCCN2CCN(C)CC2)c2ccc(Oc3ccc(C(=O)N4CCN(CCc5ccc6c(c5)OCO6)CC4)cc3)cc12"
  Measured Endpoint: "pIC50"
  Data Value: 5.39
- Structure Smiles String: "COc1ccc2cccc(CCN3CCN(C(=O)c4ccc(Cc5ccc6c(c5)c(C)c(C)n6CCCN5CCN(C)CC5)cc4)CC3)c2c1"
  Measured Endpoint: "pIC50"
  Data Value: 5.51
- Structure Smiles String: "Cc1c(C)n(CCCN2CCN(C)CC2)c2ccc(Oc3cccc(C(=O)N4CCN(CCc5ccc6c(c5)OCO6)CC4)c3)cc12"
  Measured Endpoint: "pIC50"
  Data Value: 5.28
- Structure Smiles String: "COc1ccc2cccc(CCN3CCN(C(=O)c4cccc(Cc5ccc6c(c5)c(C)c(C)n6CCCN5CCN(C)CC5)c4)CC3)c2c1"
  Measured Endpoint: "pIC50"
  Data Value: 5.40

---

- System: SK-N-SH
- Method: Anti-proliferative activity, cell-titre luminescent viability assay
- Type: cell-based
- Details: Homo sapiens, SK-N-SH, 72 h, 0.03, 0.3, 3 and 30 μM, linear regression of semi-log plots, read-out: IC50 Neuroblastoma SK-N-SH
pIC50: −log10 of the molar value.
Measured Endpoint: pIC50

- Structure Smiles String: "Cc1c(C)n(CCCN2CCN(C)CC2)c2ccc(Nc3cccc(C(=O)N4CCN(CCc5ccc6c(c5)OCO6)CC4)c3)cc12"
  Data Value: 5.47
- Structure Smiles String: "Cc1c(C)n(CCCN2CCN(C)CC2)c2ccc(Nc3cccc(C(=O)N4CCN(CCc5ccccc5)CC4)c3)cc12"
  Data Value: 5.64
- Structure Smiles String: "Cc1c(C)n(CCCN2CCN(C)CC2)c2ccc(Nc3ccc(C(=O)N4CCN(CCc5ccc6c(c5)OCO6)CC4)cc3)cc12"
  Data Value: 5.48
- Structure Smiles String: "Cc1c(C)n(CCCN2CCN(C)CC2)c2ccc(Nc3ccc(C(=O)N4CCN(CCc5cccc(F)c5)CC4)cc3)cc12"
  Data Value: 5.85
